- Test system: HOP-92 NSCLC
- protocol_description: NCI-60 one-dose screen, 48 h (100 = growth as untreated, 0 = no growth, -100 = all killed)
- condition_summary: 10 µM unless noted
- Description: Growth inhibition of the HOP-92 human Non-Small Cell Lung tumor cell line is measured as a screen for anti-cancer activity. Cells are grown in 96 well plates and exposed to the test compound for 48 hours. Compounds are tested at a single concentration, which is 10^-5 M for most compounds. The reported endpoint is percent growth (GI% or GIPRCNT), where numbers from 0 - 100% represent growth inhibition, and numbers from -100% - 0 represent cell death. […]
About 83,000 compounds went through this panel and 20% of them were active in at least one assay; those are over-represented in the sample as a whole.
Measured growth accompanies every entry in the list below.
observation_type: growth (%)

- compound: "Oc1c(CCl)cc(Cl)cc1Cc1cc(Cl)cc(Cc2cc(Cl)cc(CCl)c2O)c1O"
  observation_type: "growth"
  recorded_result: -18.3
- compound: "NCCCn1c2c(c3cc(-c4ccn[nH]4)ccc3c1=O)C(=O)c1ccccc1-2"
  observation_type: "growth"
  recorded_result: 79.2
- compound: "COc1cc(NCC(=O)Nc2cc(Nc3cccc(C(F)(F)F)c3)ncn2)c(Cl)c(OC)c1Cl"
  observation_type: "growth"
  recorded_result: 92.7
- compound: "COc1ccc([C@H]2[C@@H](F)C(=O)N2c2cc(OC)c(OC)c(OC)c2)cc1F"
  observation_type: "growth"
  recorded_result: 32.3
- compound: "O=C(Nc1cc(=O)[nH]c(=O)[nH]1)C(Cl)Cl"
  observation_type: "growth"
  recorded_result: 98.8
- compound: "N#CC1(C#N)C2=C(CCCC2)NC(c2c(F)cccc2Cl)C1(C#N)C#N (stereo not drawn)"
  observation_type: "growth"
  recorded_result: 42.9
- compound: "C1=CC2=CC=C3C=CC=C4C(c5nc6c7ccccc7c7ccccc7c6[nH]5)=CC(=C1)C2C34 (stereo not drawn)"
  observation_type: "growth"
  recorded_result: 72.9
- compound: "COc1ccc2nc(-c3ccc(Cl)cc3)cc(-c3nnc(SC/C(=N/O)c4ccccc4)o3)c2c1"
  observation_type: "growth"
  recorded_result: 60.7
- compound: "Cc1nnc(/N=C2\\NC(=O)/C(=C/c3ccc(N(C)C)cc3)S2)s1"
  observation_type: "growth"
  recorded_result: 85.1
- compound: "C=C1C(=O)O[C@H]2[C@H]1CC/C(COC(=O)N1CCC[C@H]1C(=O)Nc1ccc(OC)c(C(N)=O)c1O)=C\\CC[C@@]1(C)O[C@@H]21"
  observation_type: "growth"
  recorded_result: -11.2
- compound: "COc1cc(NC(=O)Nc2cnc(Nc3ccc(N4CCOCC4)cc3)nc2Oc2ccc(C(F)(F)F)cc2)cc(OC)c1"
  observation_type: "growth"
  recorded_result: 99
- compound: "C#C[C@@]1(O)[C@@H](CO)O[C@@H](n2cc(Cl)c3c(N)ncnc32)[C@@H]1O"
  observation_type: "growth"
  recorded_result: -27.1
- compound: "C#Cc1ccccc1NC(=O)c1sc2nc3c(cc2c1N)CCCCC3"
  observation_type: "growth"
  recorded_result: 93.2
- compound: "CCC[S@](=O)c1ccc2nc(NC(=O)OC)[nH]c2c1"
  observation_type: "growth"
  recorded_result: 96.5
- compound: "C[C@H](Oc1cc(-c2cnn(C3CCNCC3)c2)cnc1N)c1c(Cl)ccc(F)c1Cl"
  observation_type: "growth"
  recorded_result: 41.1
- compound: "Cc1cccc(C)c1NC(=O)CN(CC(C)C)CC(O)COc1ccccc1 (stereo not drawn)"
  observation_type: "growth"
  recorded_result: 91.4
- compound: "O=c1c2ccccc2oc2ccc(OCCCCCN3CCCCCC3)cc12"
  observation_type: "growth"
  recorded_result: 94.1
- compound: "O=[N+]([O-])c1ccc(Oc2ccc(-c3ccccc3)cc2)cc1"
  observation_type: "growth"
  recorded_result: 74.3
- compound: "Cc1ccc(CS/C(=C\\c2ccc([N+](=O)[O-])cc2)C(=O)c2ccc(F)cc2)cc1"
  observation_type: "growth"
  recorded_result: 96.2
- compound: "CN(C)C(CNc1oc(-c2cccc3ccccc23)nc1C#N)c1ccco1 (stereo not drawn)"
  observation_type: "growth"
  recorded_result: 94
- compound: "O=C(C[n+]1cccc2cc(Cl)ccc21)c1ccc2c(c1)CCCC2"
  observation_type: "growth"
  recorded_result: 4.68
- compound: "C#C[C@@]1(O)[C@@H](CO)O[C@@H](n2cc(I)c3c(N)ncnc32)[C@@H]1O"
  observation_type: "growth"
  recorded_result: -23.8
- compound: "COc1ccc(-c2cc(-c3nnc(SCC(=O)Nc4ccc(/C(C)=N\\O)cc4)o3)c3ccccc3n2)cc1"
  observation_type: "growth"
  recorded_result: 109
- compound: "C=C(C)[C@@H]1CCC=C2CC[C@]3(C)[C@H](CC[C@@H]4[C@@]5(C)CCCNC(C)(C)[C@@H]5CC[C@]43C)[C@H]21"
  observation_type: "growth"
  recorded_result: 79.2
- compound: "COc1cccc(C(=O)OCCn2nc3c4c(cccc42)C(=O)c2ccccc2-3)c1O"
  observation_type: "growth"
  recorded_result: 62.1
- compound: "CC[C@H](Nc1ncnc2nc[nH]c12)c1nc2cccc(CC(=O)c3ccc(C(=O)NO)cc3)c2c(=O)n1-c1ccccc1"
  observation_type: "growth"
  recorded_result: 72.6
- compound: "COc1ccc(C(=O)c2cc(OC)c(OC)c(OC)c2)cc1OC(=O)C(Cl)(Cl)Cl"
  observation_type: "growth"
  recorded_result: 50.3
- compound: "O=Cc1[nH]c(Sc2ccccc2)c2ccccc12"
  observation_type: "growth"
  recorded_result: 45.7

The measurements presented in this section are drawn from PubChem BioAssay (NCI).
